Listing of recorded TGI by entry.
system: LOX IMVI melanoma; assay: NCI tumour cell line growth inhibition, 48 h
result-type: TGI

compound	result-type	test-result
COC1C(OC(=O)c2ccc(C)[nH]2)C(O)C(Oc2ccc3c(O)c(NC(=O)c4ccc(O)c(CC=C(C)C)c4)c(=O)oc3c2Cl)OC1(C)C (centres undefined)	TGI	38.4 µM
Cc1ccc(C2=CC(=O)/C(=C\C(=O)c3ccc(Br)cc3)O2)c(C)c1	TGI	> 21.1 µM
NC(Cc1ccccc1)C(=O)OCN1C(=O)C2C3C=CC(C2C1=O)C1C(=O)N(COC(=O)C(N)Cc2ccccc2)C(=O)C31 (centres undefined)	TGI	42.2 µM
O=C1CCC(c2ccccc2)=NN1c1nc2ccccc2s1	TGI	> 100 µM
